assay: Tmax in Sprague-Dawley rat at 10 mg/kg, iv; format: ADME, organism-based; set-up: dose 10 mg/kg, route intravenous; settings: in vivo
Value Type: Tmax (h)
Quick reminder: number only, in h, skip the unit.

Molecule	Unit Info	Quantitative Result
CC(=O)NC[C@H]1CN(c2ccc(N3CCOCC3)c(F)c2)C(=O)O1 [LINEZOLID]	h	0

Record request: Tmax value, item CC(=O)NC[C@H]1CN(c2ccc([N+]3([O-])CCN(C(=O)/C=C/c4ccc([N+](=O)[O-])o4)CC3)c(F)c2)C(=O)O1 0

* * *

assay: AUC in Sprague-Dawley rat at 30 mg/kg, po; type: ADME, organism-based; design: dose 30 mg/kg, route oral; settings: plasma
Value Type: AUC (ng·h/mL)
Write it as a number; the unit ng·h/mL goes unstated.

I would be grateful if you could share the reported AUC for CC(=O)NC[C@H]1CN(c2ccc([N+]3([O-])CCN(C(=O)/C=C/c4ccc([N+](=O)[O-])o4)CC3)c(F)c2)C(=O)O1 . 1870
